Parameter MIC, tested on S. aureus DSM 346, listed per item.
Use µg/mL as the unit, but write only the number.

Sample answers from the record:
molecule="CC[C@H](C)[C@@H]1O[C@H](c2c(O)c(-c3ccccc3)cn(O)c2=O)[C@@H](C)C[C@@H]1C [Acp G, Arcopilin G]" result_type=MIC result_units=µg/mL measurement=16.6
molecule="C[C@H](C[C@@H](C)[C@H](C)O)C[C@H](C)C(=O)C1=C(O)/C(=C/c2ccccc2)NC1=O [Acp B, Arcopilin B]" result_type=MIC result_units=µg/mL measurement=66.7
molecule="CNC(C)C1CCC(N)C(OC2C(N)CC(N)C(OC3OCC(C)(O)C(NC)C3O)C2O)O1 (centres unmarked) [Gentamicin]" result_type=MIC result_units=µg/mL measurement=0.4
molecule="C[C@H](C[C@@H](C)[C@H](C)OC=O)C[C@H](C)C(=O)C1=C(O)/C(=C/c2ccccc2)NC1=O [Acp C, Arcopilin C]" result_type=MIC result_units=µg/mL measurement=33.3

Entry CC(=O)[C@H](C)C[C@@H](C)C[C@H](C)C(=O)C1=C(O)/C(=C/c2ccccc2)NC1=O [Acp A, Arcopilin A] : reported MIC = ? 66.7
